- Test system: normal primary NK cells, pool 2 (3 donors) (IL-2 2.5 ng/mL);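 further: normalised to DMSO-only wells as negative and benzethonium chloride as positive control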
- protocol description: percent inhibition of viability; higher = more inhibition
- run conditions: 72 h; 1000 nM
Hi! Could you tag entries with percent inhibition of viability below 30% as satisfied, and those at or above as not satisfied? Much appreciated.

## Input I wonder whether CCS(=O)(=O)c1cccc(-c2cc(C(=O)NC3CCN(C)CC3)c(C)c3[nH]c4ncc(C)cc4c23)c1 [TAK-901] (max concentration tested 1000 nM) has percent inhibition of viability below 30%. Can you tell?
## Output satisfied

## Input And O=C(O)CC1CC(c2ccccc2)=NO1 (stereo unspecified) [VGX-1027] (max concentration tested 10000 nM) ?
## Output satisfied

## Input And CC[C@]1(O)C[C@@H]2CN(CCc3c([nH]c4ccccc34)[C@@](C(=O)OC)(c3cc4c(cc3OC)N(C)[C@H]3[C@@](O)(C(=O)OC)[C@H](OC(C)=O)[C@]5(CC)C=CCN6CC[C@]43[C@@H]65)C2)C1 [Vinblastine] (max concentration tested 1000 nM) ?
## Output satisfied

## Input And C=CC(=O)Nc1cc2c(Nc3ccc(F)c(Cl)c3)ncnc2cc1OCCCN1CCOCC1 [Canertinib] (max concentration tested 10000 nM) ?
## Output not satisfied

## Input And Cn1cnc2c(F)c(Nc3ccc(Br)cc3Cl)c(C(=O)NOCCO)cc21 [Selumetinib] (max concentration tested 10000 nM) ?
## Output satisfied

## Input And Cc1cc(Nc2cc(CN3CCOCC3)c3nc(C)c(Cc4ccc(Cl)cc4F)n3n2)n[nH]1 [Gandotinib] (max concentration tested 10000 nM) ?
## Output not satisfied

## Input And CNC(=O)c1cc(Oc2ccc(NC(=O)Nc3cc(C(C)(C)C)nn3-c3ccc4ncccc4c3)c(F)c2)ccn1 [Rebastinib] (max concentration tested 1000 nM) ?
## Output satisfied

## Input And CCN(CC)C(=S)SSC(=S)N(CC)CC [Disulfiram] (max concentration tested 100000 nM) ?
## Output not satisfied

## Input And CC(C)C[C@@H](C(=O)N[C@H](C(=O)OC1CCCC1)c1ccccc1)[C@H](O)C(=O)NO [Tosedostat] (max concentration tested 10000 nM) ?
## Output satisfied

## Input And COc1cc([C@@H]2c3cc4c(cc3[C@@H](O[C@@H]3O[C@@H]5CO[C@@H](c6cccs6)O[C@H]5[C@H](O)[C@H]3O)[C@H]3COC(=O)[C@H]23)OCO4)cc(OC)c1O [Teniposide] (max concentration tested 10000 nM) ?
## Output not satisfied

## Input And CN(C)C(=O)c1cc2cnc(Nc3ccc(N4CCNCC4)cn3)nc2n1C1CCCC1 [Ribociclib] (max concentration tested 10000 nM) ?
## Output satisfied
